Experimental Protocol: Stability in αMEM culture medium (HPLC after 24 h)
Format: physicochemical
Condition Description: after 24 h incubation at 37 °C
Reported Property: % Stability in αMEM (%)
Numeric only. Scale: %

{"columns": ["Compound", "Units Of Measure", "% Stability in αMEM"],
 "data": [
  ["O=[N+]([O-])c1nccn1CCNS(=O)(=O)CCO", "%", 100.0]
]}

% Stability in αMEM for O=[N+]([O-])c1nccn1CS(=O)(=O)NC(CO)C(O)CO (centres unmarked) is 98.5

% Stability in αMEM for O=[N+]([O-])c1nccn1CCS(=O)(=O)NCC(O)CO (centres unmarked) is 99.9

% Stability in αMEM for O=[N+]([O-])c1cncn1CCS(=O)(=O)NCCN1CCOCC1 is 99.9

% Stability in αMEM for O=[N+]([O-])c1nccn1CS(=O)(=O)NCC(O)CO (centres unmarked) is 99.3
